Biological target: hROMK (hKir1.1) (Homo sapiens, UniProt P48048)
Assay: Thallium Flux Assay (ROMK channel functional thallium flux assay, FLIPR-Tetra)
Conditions: HEK293 cells stably expressing hROMK (hKir1.1); FluxOR thallium flux, 30 min compound incubation; concentration inhibiting 50% of ROMK thallium flux signal
Protocol: The following Thallium Flux Assay was performed on each of the final product compounds in the Examples. […] • 1. […] At FLIPR-Tetra 384: Add stimulant (thallium/potassium) solution to microplate and monitor fluorescence. […] The fluorescence intensity of wells containing 3 μM of a standard control ROMK inhibitor of the present invention was used to define the ROMK-sensitive component of thallium flux. […]
Quantity kind: IC50 (µM)

Worked cases, IC50 given:
- Molecule: "Cc1c(F)c(C#N)cc(F)c1C(O)CN1CCC2(CC1)CCN(c1ccc3nncn3n1)C2 (racemic)"
  Readout units: "µM"
  IC50: 0.0359
- Molecule: "COc1cc(C(O)CN2CCC3(CC2)CCN(c2ccc4nncn4n2)C3)ccc1C#N (stereo not shown) [Example 50]"
  Readout units: "µM"
  IC50: 0.0415

[I] Cc1c([C@@H](O)CN2CCC3(CC2)CCN(c2ncc4c(C)n[nH]c4n2)C3)ccc2c1COC2=O
[II] CSCc1nnc2ccc(N3CCC4(CCN(C[C@H](O)c5ccc6c(c5C)COC6=O)CC4)C3)nn12
Exercise: Between I and II , whose recorded IC50 is greater? Mark your selection by writing its label.
Key: I

---

Target: UniProt:P48048
Sequence (P48048 1-391): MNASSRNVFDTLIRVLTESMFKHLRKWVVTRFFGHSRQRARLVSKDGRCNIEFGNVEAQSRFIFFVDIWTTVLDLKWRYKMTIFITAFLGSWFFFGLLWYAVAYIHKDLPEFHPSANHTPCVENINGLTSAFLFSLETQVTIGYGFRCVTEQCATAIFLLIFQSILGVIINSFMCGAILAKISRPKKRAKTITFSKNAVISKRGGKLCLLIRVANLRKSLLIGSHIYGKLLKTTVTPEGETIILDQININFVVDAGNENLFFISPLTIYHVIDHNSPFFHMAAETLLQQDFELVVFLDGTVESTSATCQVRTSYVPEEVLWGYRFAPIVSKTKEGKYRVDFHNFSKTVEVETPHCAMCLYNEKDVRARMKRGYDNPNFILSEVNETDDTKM
Assay: Thallium Flux Assay (ROMK channel functional thallium flux assay, FLIPR-Tetra)
Conditions: HEK293 cells stably expressing hROMK (hKir1.1); FluxOR thallium flux, 30 min compound incubation; concentration inhibiting 50% of ROMK thallium flux signal
Quantity kind: IC50 (µM)

- Compound: "Cc1c([C@@H](O)CN2CCC3(CC2)CCN(c2nccn4cnnc24)C3)ccc2c1COC2=O"
  Quantity kind: "IC50"
  Value reported: 0.235

[P] Cc1c([C@@H](O)CN2CCC3(CC2)CC(=O)N(c2cnn4ncccc24)C3)ccc2c1COC2=O
[Q] Cc1c([C@@H](O)CN2CCC3(CC2)CCN(c2ccc4nonc4n2)C3)ccc2c1COC2=O
Exercise: Lab notebook, comparison: P versus Q , higher IC50 goes to which? Please reply using the label of the selected record.
Key: P

[1] COC1OC(=O)c2ccc(N3CCC4(CCN(C[C@H](O)c5ccc6c(c5C)COC6=O)CC4)C3)cc21 (some centres unmarked)
[2] N#Cc1ccc(C(O)CN2CCC3(CC2)CCN(c2ccc4nncn4n2)C3)nc1 (centres unmarked) [Example 42]
[3] Cc1c([C@@H](O)CN2CCC3(CC2)CCN(c2ccc4nnnn4n2)C3)ccc2c1COC2=O
[4] Cc1c([C@@H](O)CN2CCC3(CC2)CCN(c2ccnc4c2OCO4)C3=O)ccc2c1COC2=O
Exercise: Rank order required: IC50, descending. Please list the labels in the order you were asked to rank them.
Key: 1, 2, 4, 3
(1: 0.199 µM, 2: 0.117 µM, 4: 0.0549 µM, 3: 0.0128 µM)

[A] N#Cc1ccc(C(O)CN2CCC3(CC2)CCN(c2ccc4nncn4n2)C3)nc1 (centres unmarked) [Example 43]
[B] Cc1c([C@@H](O)CN2CCC3(CCCN(c4ccc5nncn5n4)C3)CC2)ccc2c1COC2=O
[C] COc1cc([C@@H](O)CN2CCC3(CC2)CCN(c2ccc4nncn4n2)C3=O)ncc1C#N
[D] COc1cc([C@@H](O)CN2CCC3(CC2)CC(=O)N(c2ccc4nncn4n2)C3)ncc1C#N
Exercise: Which order do these items take when sorted by rising IC50? List them. Answer by naming the labels in the order asked.
Key: B, D, A, C

[A] Cc1cc(C#N)cnc1C(O)CN1CCC2(CC1)CCN(c1ccc3nncn3n1)C2 (centres unmarked) [Example 48]
[B] Cc1c([C@@H](O)CN2CCC3(CC2)CCN(c2nc4c(S(N)(=O)=O)cccc4s2)C3)ccc2c1COC2=O
Exercise: I'm curious, which of these has a smaller IC50 number: A or B ? Return value: the label identifying the chosen record.
Key: A
(A: 0.0881 µM, B: 0.304 µM)

---

Target: hROMK (hKir1.1) (Homo sapiens)
Sequence (P48048 1-391): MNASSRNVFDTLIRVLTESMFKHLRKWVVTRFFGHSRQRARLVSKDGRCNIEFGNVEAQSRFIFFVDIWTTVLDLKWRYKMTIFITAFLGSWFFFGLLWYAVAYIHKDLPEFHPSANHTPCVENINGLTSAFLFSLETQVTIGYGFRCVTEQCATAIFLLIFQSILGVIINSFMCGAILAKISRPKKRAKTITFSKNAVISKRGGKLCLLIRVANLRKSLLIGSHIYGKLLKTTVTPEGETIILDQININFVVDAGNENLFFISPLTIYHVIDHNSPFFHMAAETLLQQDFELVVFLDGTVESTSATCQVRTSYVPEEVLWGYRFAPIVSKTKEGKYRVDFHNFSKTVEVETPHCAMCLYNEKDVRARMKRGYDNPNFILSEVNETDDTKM
Assay: Thallium Flux Assay (ROMK channel functional thallium flux assay, FLIPR-Tetra)
Conditions: HEK293 cells stably expressing hROMK (hKir1.1); FluxOR thallium flux, 30 min compound incubation; concentration inhibiting 50% of ROMK thallium flux signal
pIC50: −log10 of the molar value.
Quantity kind: pIC50

[1] Cc1c([C@@H](O)CN2CCC3(CC2)CCN(c2ccc4nnc(C5CC5)n4n2)C3)ccc2c1COC2=O
[2] COc1cc([C@@H](O)CN2CCC3(CC2)CCN(c2ccc4nncn4n2)C3)ncc1C#N
[3] COc1cc([C@H](O)CN2CCC3(CC2)CC(=O)N(c2ccc4nncn4n2)C3)ncc1C#N
[4] Cc1c([C@@H](O)CN2CCC3(CC2)CCN(c2ccc4nncn4n2)C3=O)ccc2c1COC2=O
[5] Cc1c([C@@H](O)CN2CCC3(CC2)CCN(c2ccc4nsnc4c2)C3)ccc2c1COC2=O
Exercise: Would you mind ranking these compounds by ascending pIC50? Please write the labels in the order that was asked for.
Key: 3, 5, 1, 4, 2
(3: 6.11, 5: 6.47, 1: 6.69, 4: 6.94, 2: 7.34)

[P] Cc1c([C@@H](O)CN2CCC3(CC2)CCN(c2nc4cc(C#N)ccc4[nH]2)C3)ccc2c1COC2=O
[Q] Cc1c([C@@H](O)CN2CCC3(CC2)CCN(c2ccc4nnc(C(F)(F)F)n4n2)C3)ccc2c1COC2=O
Exercise: Between P and Q , which one shows the larger pIC50 value? Field: selected label. Fill in the label of the entry you choose.
Key: P

[P] COc1cc([C@H](CN2CCC3(CC2)CCN(c2ccc4nncn4n2)C3)OC(=O)C2CC2)ncc1C#N
[Q] Cc1c([C@@H](O)CN2CCC3(CC2)CCN(c2nc4cc(F)ccc4o2)C3)ccc2c1COC2=O
[R] Cc1nc(C(O)CN2CCC3(CC2)CCN(c2ccc4nncn4n2)C3)ccc1C#N (stereo not drawn) [Example 46]
[S] Cc1c([C@@H](O)CN2CCC3(CC2)CCN(c2ccc4nnc(-c5ccco5)n4n2)C3)ccc2c1COC2=O
[T] Cc1cc(C#N)cnc1C(O)CN1CCC2(CCN(c3ccc4nncn4n3)CC2)C1 (stereo not drawn) [Example 65]
Exercise: Order the records so the highest pIC50 appears first and the lowest last. # format: label list in the order the request specifies
Key: T, R, P, S, Q
(T: 7.46, R: 7.11, P: 6.67, S: 6.39, Q: 6.11)

---

Molecular target: hROMK (hKir1.1) (Homo sapiens, UniProt P48048)
Construct: expressed in transfected cells
Sequence (P48048 1-391): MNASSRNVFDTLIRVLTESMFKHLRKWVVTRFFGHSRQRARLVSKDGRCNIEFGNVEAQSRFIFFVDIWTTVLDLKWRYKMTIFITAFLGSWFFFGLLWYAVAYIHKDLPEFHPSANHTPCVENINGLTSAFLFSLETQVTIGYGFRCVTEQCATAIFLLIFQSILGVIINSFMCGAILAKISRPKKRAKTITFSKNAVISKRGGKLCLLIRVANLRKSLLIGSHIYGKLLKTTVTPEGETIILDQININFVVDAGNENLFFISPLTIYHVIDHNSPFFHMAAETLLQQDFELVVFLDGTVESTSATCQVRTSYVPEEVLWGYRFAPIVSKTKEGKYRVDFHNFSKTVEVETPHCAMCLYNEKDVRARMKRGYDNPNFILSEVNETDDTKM
Experiment: Thallium Flux Assay (ROMK channel functional thallium flux assay, FLIPR-Tetra)
Format: cell-based
Conditions: HEK293 cells stably expressing hROMK (hKir1.1); FluxOR thallium flux, 30 min compound incubation; concentration inhibiting 50% of ROMK thallium flux signal
Quantity kind: IC50 (nM)

Solved cases below.
- Molecule: "Cc1c([C@@H](O)CN2CCC3(CC2)CCN(c2ccn4nccc4n2)C3)ccc2c1COC2=O"
  Readout units: "nM"
  IC50: 246
- Molecule: "Cc1c([C@@H](O)CN2CCC3(CC2)CCN(c2cnc4nonc4c2)C3)ccc2c1COC2=O"
  Readout units: "nM"
  IC50: 27.3
- Molecule: "Cc1c([C@@H](O)CN2CCC3(CC2)CCN(c2ccc4c(c2C)COC4=O)C3)ccc2c1COC2=O"
  Readout units: "nM"
  IC50: 19
- Molecule: "COc1cc(C(O)CN2CCC3(CC2)CC(=O)N(c2ccc4nncn4n2)C3)ccc1C#N (centres unmarked)"
  Readout units: "nM"
  IC50: 413
- Molecule: "COc1cc(C(O)CN2CCC3(CC2)CCN(c2ccc4nncn4n2)C3)ccc1C#N (centres unmarked) [Example 51]"
  Readout units: "nM"
  IC50: 48.7

[a] COc1cc([C@H](O)CN2CCC3(CCN(c4ccc5nncn5n4)CC3)C2)ncc1C#N
[b] Cc1c([C@@H](O)CN2CCC3(CC2)CCN(c2nn4cnnc4c4ccccc24)C3)ccc2c1COC2=O
Exercise: Select the item whose IC50 value is smaller, choosing between a and b . Identify your pick by its label.
Key: a

Values from patent US20170275302A1
